# assay-summary: qHTS assay for small molecule disruptors of the mitochondrial membrane potential (AID 720635)
# conditions: HepG2 mitochondrial membrane potential, Mito-MPS dye ratio; series mostly up to 83.2 µM
Records with an inconclusive call do not appear. Calls of active or inactive are those of the source. Calls follow the shape of the dose curve; as a rule, active = well fitted inhibition curve with a large enough effect in the signal ratio in the repeat runs; inconclusive = weak or mixed curves, or effect the other way; inactive = flat fitted curve, though single readings scatter; the % refers to the signal ratio.
Outcomes: active, inactive

| compound | label |
| --- | --- |
| CC(=O)OCCc1ccccc1 | inactive |
| O=c1[nH]cnc2ccccc12 | inactive |
| Nc1nc(CC(=O)O)cs1 | inactive |
| CC[C@@H]1C[C@H](N(Cc2cc(C(F)(F)F)cc(C(F)(F)F)c2)C(C)=O)c2cc(C(F)(F)F)ccc2N1C(=O)OC(C)C | active |
| CC(C)(C)c1cc(CO)cc(C(C)(C)C)c1O | active |
| O=C(NS(=O)(=O)/C=C/c1cccs1)c1ccc(F)cc1Br | active |
| Cn1c(=O)c2c(ncn2CC(O)CO)n(C)c1=O (stereo not drawn) | inactive |
| CC1(C)[C@H]2CC[C@]1(C)[C@H](O)C2 | inactive |
| COc1cc(C(C)(C)C)c(O)c(C(C)(C)C)c1 | active |
| CCN1CCC[C@H]1CNC(=O)c1c(OC)ccc(Br)c1OC | inactive |
| CCCCCC(CO)CCC (stereo not drawn) | inactive |
| CC(O)C1CCCCC1 (stereo not drawn) | inactive |
| CC(C)NCC(O)c1cc(O)cc(O)c1 (stereo not drawn) | inactive |

* * *

# assayed-system: Bile acid receptor (Homo sapiens)
# assay-summary: qHTS assay to identify small molecule antagonists of the farnesoid-X-receptor (FXR) signaling pathway (AID 743217)
# conditions: HEK293T FXR-UAS-bla, beta-lactamase ratio, CDCA-stimulated, 16 h; series mostly up to 62.6 µM
# Description: U.S. Tox21 Program National Center for Advancing Translational Sciences [NCATS] NIH Chemical Genomics Center [NCGC] U.S. Environmental Protection Agency [EPA] National Institutes of Environmental Health Sciences [NIEHS] National Toxicology Program [NTP] U.S. Food and Drug Administration [FDA] Tox21 Assay Overview: The farnesoid-X-receptor (FXR), a nuclear hormone receptor, is highly expressed in liver, intestine, kidney and adrenal cortex. […]
Records with an inconclusive call do not appear. Calls of active or inactive are those of the source. Calls come from the whole dose curve; as a rule, active = well fitted inhibition curve with a large enough effect in the signal ratio in the repeat runs (not every such curve was filed as active); inconclusive = weak or mixed curves, or effect the other way; inactive = no such curve, though single readings can be large or run the other way; the % refers to the signal ratio.

| compound | outcome |
| --- | --- |
| Nc1nc(N)c(-c2ccccc2)s1 | inactive |
| C=CC(C)(CCC=C(C)C)OC(=O)c1ccccc1 (centres undefined) | inactive |
| CCCCCCCCCCCCCCCC(=O)OC/C=C(C)/C=C/C=C(C)/C=C/C1=C(C)CCCC1(C)C | inactive |
| CN(C(=O)CCCOc1ccc2[nH]c(=O)ccc2c1)C1CCCCC1 | inactive |
| CCCCCCCCCO | inactive |
| Cc1ccc(C)o1 | inactive |
| Cc1ccc(C(=O)C(C)CN2CCCCC2)cc1 (centres undefined) | inactive |
| O=C(O)C(c1ccc(Cl)cc1)c1ccc(Cl)cc1 | inactive |
| CN1CCN(C2=Nc3cc(Cl)ccc3Nc3ccccc32)CC1 | inactive |
| CC(=O)OC/C=C/c1ccccc1 | inactive |
| CC(C)=CCCC(C)CC=O (centres undefined) | inactive |
| CCCCCCc1ccc(N)cc1 | inactive |
| CN1CCC(OC(c2ccccc2)c2ccccc2)CC1 | inactive |
| N#Cc1c(F)cccc1F | inactive |
| CCCCC(CC)(CO)CO | inactive |
| O=C(O)Cc1sc(-c2ccccc2)nc1-c1ccc(Cl)cc1 | inactive |
| CC(C)c1cccc(C(C)C)c1NC(=O)NS(=O)(=O)c1cc(C(C)(C)O)co1 | inactive |
| N#CCc1cccc(C(F)(F)F)c1 | inactive |
| CCOc1ccc2[nH]cc(C(=O)NCc3ccccc3)c(=O)c2n1 | inactive |
| CC(=O)NCCCS(=O)(=O)O | inactive |
| Cn1c(N)nc2nc[nH]c2c1=O | inactive |
| O=C(CC(=O)c1ccccc1)c1ccccc1 | inactive |
| O=[N+]([O-])c1cc[n+]([O-])cc1 | inactive |
| CCOC(=O)C1=NN(c2ccccc2)C(=O)C1 | inactive |
| CC(C(=O)O)c1ccc(C(=O)c2ccccc2)s1 (centres undefined) | inactive |
| COc1ccc(OC)c(OC)c1 | inactive |
| O=S(=O)(O)c1ccc(O)c2ncccc12 | inactive |
| CC1(C)CCC(C)(C)c2cc(NC(=O)c3ccc(C(=O)O)cc3)ccc21 | inactive |
| CC(C)CC=O | inactive |
| O=C(O)[C@@H]1[C@H]2C[C@H]3c4[nH]c5ccccc5c4CCN3C[C@@H]2CC[C@@H]1O | inactive |
| CCOC(=O)CC(=O)c1cc(F)c(Cl)nc1Cl | inactive |
| O=[N+]([O-])c1cccc(Cl)c1Cl | inactive |
| Nc1ccc(C(=O)N2CC3CC(CN(Cc4ccccc4)C3)C2)cc1 | inactive |
| N#Cc1cc2ccccc2c2ccccc12 | inactive |
| CC(C)(C)C1CCCCC1O (centres undefined) | inactive |
| O=c1[nH]cnc2ccccc12 | inactive |
| Cc1cc(CC(=O)O)c(C)n1-c1ccc(Cl)cc1 | inactive |
| OCC1CC2CC1C1CCC(CO)C21 (centres undefined) | inactive |
| O=S1(=O)c2cccc3cccc(c23)N1CCCN1CCN(c2ccc(F)cc2)CC1 | inactive |

* * *

# assay-summary: qHTS assay to identify small molecule agonists of the sonic hedgehog signaling (Shh) pathway (AID 1259368);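 also: NIH/3T3-derived 3T3Gli1-Luc cells carrying a stable Gli1-driven firefly luciferase reporter; nearly all actives have a fitted effect of over 15% in size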
# conditions: NIH/3T3 Gli1-Luc reporter, luciferase, 24 h, active compounds read high; series mostly up to 92.4 µM
The source made the active and inactive calls. Calls come from the whole dose curve.
readout-name: activity change

| mol-smiles | observed-value |
| --- | --- |
| CC1(C)[C@H]2CC[C@]1(C)[C@H](O)C2 | inactive |
| CCCCOCCOCCOCCOCCO | inactive |
| C=CC[N+]1([C@H]2C[C@H]3[C@@H]4CC[C@H]5C[C@H](OC(C)=O)[C@@H](N6CCCCC6)C[C@]5(C)[C@H]4CC[C@]3(C)[C@H]2OC(=O)CC)CCCCC1 | inactive |

* * *

# assay-summary: qHTS assay to identify small molecule antagonists of the sonic hedgehog signaling (Shh) pathway (AID 1259369); also: nearly all actives have a fitted effect of over 45% in size; also: potency is read from the fitted curve at half-maximal effect
# conditions: NIH/3T3 Gli1-Luc reporter, Shh antagonist, luminescence 24 h; series mostly up to 92.4 µM
Records with an inconclusive call do not appear. Activity calls are given as the source filed them. Calls come from the whole dose curve.

| compound | Potency |
| --- | --- |
| CC(C)CCCCCCOC(=O)c1ccc(C(=O)OCCCCCCC(C)C)c(C(=O)OCCCCCCC(C)C)c1 | inactive |
| C=CC(=O)OCC(C)OCC(C)OCC(C)OC(=O)C=C (centres undefined) | 9.69 µM (active) |
| Nc1nc(N)c(-c2ccccc2)s1 | inactive |
| CCOC(=O)CC(C)C | inactive |
| CCN(CC)CCOC(=O)C1(c2ccccc2)CCCC1 | inactive |
| c1ccc(CNCc2ccccc2)cc1 | inactive |
| O=c1c2ccccc2nnn1CCl | inactive |
| CC(O)C1CCCCC1 (centres undefined) | inactive |
| NC(=S)N/N=C/c1cccnc1 | inactive |
| Cc1cc(NC(=O)C(=O)O)cc(C)c1Oc1ccc(O)c2c1CCC2 | inactive |
| CCOc1cc(OCC)c(C(=O)CCC(=O)O)cc1OCC | inactive |
| CC(C)(C)c1cc(O)c(C(C)(C)C)cc1O | 30.6 µM (active) |
| CCCCCCOC(=O)CCC | inactive |
| CN1CCC(=C2c3ccccc3CCc3sccc32)CC1 | 2.98 µM (active) |

* * *

# assayed-system: Aromatase (Homo sapiens) (UniProt P11511)
# Sequence (P11511 whole entry, looked up): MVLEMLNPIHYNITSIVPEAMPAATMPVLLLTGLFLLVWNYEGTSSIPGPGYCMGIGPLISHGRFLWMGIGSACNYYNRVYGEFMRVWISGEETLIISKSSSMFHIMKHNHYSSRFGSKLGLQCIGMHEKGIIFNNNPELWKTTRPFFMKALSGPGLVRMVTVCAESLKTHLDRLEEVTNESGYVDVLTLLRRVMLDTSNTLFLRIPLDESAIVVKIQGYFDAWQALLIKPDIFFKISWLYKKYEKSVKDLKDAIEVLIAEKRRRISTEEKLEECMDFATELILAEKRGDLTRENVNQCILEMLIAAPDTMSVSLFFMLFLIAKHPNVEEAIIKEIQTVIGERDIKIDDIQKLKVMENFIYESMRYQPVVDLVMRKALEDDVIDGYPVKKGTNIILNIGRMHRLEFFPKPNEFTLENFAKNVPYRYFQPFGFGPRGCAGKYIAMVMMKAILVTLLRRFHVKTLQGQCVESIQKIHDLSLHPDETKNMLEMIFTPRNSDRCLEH
# assay-summary: qHTS assay to identify aromatase inhibitors (AID 743083); also: nearly all actives have a fitted effect of over 55% in size
# conditions: MCF-7 aro ERE, testosterone-driven ERE luciferase, 24 h; series mostly up to 70.3 µM
Results filed as inconclusive are left out. Calls of active or inactive are those of the source. Calls follow the shape of the dose curve; as a rule, active = well fitted inhibition curve with a large enough effect in the repeat runs; inconclusive = weak or mixed curves; inactive = no such curve, though single readings can be large or run the other way.
Outcomes: active, inactive

| compound | assayed-system | label |
| --- | --- | --- |
| Cc1ncsc1CCO | Aromatase (Homo sapiens) (UniProt P11511) | inactive |
| CC(=O)NCCCS(=O)(=O)O | Aromatase (Homo sapiens) (UniProt P11511) | inactive |
| CC(C)c1ccccc1C(C)C | Aromatase (Homo sapiens) (UniProt P11511) | inactive |
| CCCCOc1ccc(CC(=O)NO)cc1 | Aromatase (Homo sapiens) (UniProt P11511) | inactive |
| CN1CCC(=C2c3ccccc3C=Cc3ccccc32)CC1 | Aromatase (Homo sapiens) (UniProt P11511) | inactive |
| O=C(O)Cc1cc(I)c(Oc2ccc(O)c(I)c2)c(I)c1 | Aromatase (Homo sapiens) (UniProt P11511) | inactive |
| CCCCCCCCCC(=O)OCC | Aromatase (Homo sapiens) (UniProt P11511) | inactive |
| COCCO | Aromatase (Homo sapiens) (UniProt P11511) | inactive |
| OCC1CC2CC1C1CCC(CO)C21 (centres undefined) | Aromatase (Homo sapiens) (UniProt P11511) | inactive |
| Cc1ccccn1 | Aromatase (Homo sapiens) (UniProt P11511) | inactive |
| Cc1ccc(C(N)=O)cc1N | Aromatase (Homo sapiens) (UniProt P11511) | inactive |
| O=C(c1ccccc1)c1ccc2n1CCC2C(=O)O (centres undefined) | Aromatase (Homo sapiens) (UniProt P11511) | inactive |
| Cc1ccc2c(ccc3ccccc32)c1 | Aromatase (Homo sapiens) (UniProt P11511) | inactive |
| CCc1nn(C2CCCCC2)c2cc(C3(C#N)CCC(C(=O)O)CC3)ccc12 (centres undefined) | Aromatase (Homo sapiens) (UniProt P11511) | active |
| Cc1ccc(C(=O)C(C)CN2CCCCC2)cc1 (centres undefined) | Aromatase (Homo sapiens) (UniProt P11511) | inactive |
| O=CNc1ccccc1 | Aromatase (Homo sapiens) (UniProt P11511) | inactive |
| Cc1c(Cn2ccnc2)c2ccccc2n1CCC(=O)O | Aromatase (Homo sapiens) (UniProt P11511) | inactive |
| CC(C)(C)c1ccc(OCC2CO2)cc1 (centres undefined) | Aromatase (Homo sapiens) (UniProt P11511) | inactive |
| C=Cc1c(C)c2cc3[nH]c(cc4nc(cc5nc(cc1[nH]2)C(C)=C5CCC(=O)O)C(CCC(=O)O)=C4C)c(C)c3C=C | Aromatase (Homo sapiens) (UniProt P11511) | inactive |
| CC(C)(C)C(=O)OCOP(=O)(COCCn1cnc2c(N)ncnc21)OCOC(=O)C(C)(C)C | Aromatase (Homo sapiens) (UniProt P11511) | inactive |
| CCCCC(CC)COCCCN (centres undefined) | Aromatase (Homo sapiens) (UniProt P11511) | inactive |
| CC1=CCC(C(C)C)C=C1 (centres undefined) | Aromatase (Homo sapiens) (UniProt P11511) | inactive |
| CC1(C)[C@H]2CC[C@]1(C)[C@H](O)C2 | Aromatase (Homo sapiens) (UniProt P11511) | inactive |
| COC(=O)C(C)=O | Aromatase (Homo sapiens) (UniProt P11511) | inactive |
| CCCCc1cc2ccccc2c(OCCN(C)C)n1 | Aromatase (Homo sapiens) (UniProt P11511) | inactive |
| CC(=O)/C=C/C1C(C)=CCCC1(C)C (centres undefined) | Aromatase (Homo sapiens) (UniProt P11511) | inactive |
| CCCCCCCCCCCCC(=O)O | Aromatase (Homo sapiens) (UniProt P11511) | inactive |
| Cc1occc1S | Aromatase (Homo sapiens) (UniProt P11511) | inactive |
| CCN(CC)CCNC(C(=O)OCCC(C)C)c1ccccc1 (centres undefined) | Aromatase (Homo sapiens) (UniProt P11511) | inactive |

Taken from PubChem BioAssay (Tox21).
